# TEST_TARGET: GST tagged LXRalpha LBD (ligand binding domain) (Homo sapiens, UniProt Q13133)
# Construct: purchased Invitrogen pv4655
# Sequence (Q13133 209-447 limits assumed): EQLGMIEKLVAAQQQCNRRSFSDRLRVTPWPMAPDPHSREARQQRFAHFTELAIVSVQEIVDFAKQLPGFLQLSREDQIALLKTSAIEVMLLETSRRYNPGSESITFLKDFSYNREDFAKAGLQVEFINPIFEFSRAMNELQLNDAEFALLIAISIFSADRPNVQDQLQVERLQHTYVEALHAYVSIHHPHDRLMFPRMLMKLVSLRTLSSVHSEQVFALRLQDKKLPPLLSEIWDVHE
# MEASUREMENT_DESCRIPTION: LanthaScreen TR-FRET Liver X Receptor Coactivator Assay, LXR alpha-LBD (co-activator recruitment; IP and % Emax relative to T0901317)
# Type: biochemical
# TEST_SETTINGS: Inflection Point of co-activator recruitment, LXR alpha-LBD, TR-FRET
ATTRIBUTE_MEASURED: LXR alpha IP (nM)

Example compounds with recorded LXR alpha IP (nM):
| COMPOUND | LXR alpha IP (nM) |
| --- | --- |
| COc1cccc([C@@](O)(C(=O)NC[C@@H](F)CC2CCN(c3ccc(C(=O)N(C)C)c(Cl)n3)CC2)C(F)(F)F)c1 | No IP |
| CCOc1cccc([C@@](O)(C(=O)N(C)CCCC2CCN(c3ccc(C(=O)N(C)C)c(Cl)n3)CC2)C(F)(F)F)c1 | No IP |
| COc1cccc([C@](O)(C(=O)N(C)C[C@@H]2C[C@@H]2CC2CCN(c3ccc(C(=O)N(C)C)c(Cl)n3)CC2)C(F)(F)F)c1 | No IP |
| CN(C)C(=O)c1ccc(N2CCC(CCCN(C)C(=O)C3(c4ccccc4)OCCO3)CC2)nc1Cl | No IP |
| COc1cccc([C@@](O)(C(=O)Nc2ccc(C3CCN(c4ccc(C(=O)N(C)C)c(Cl)n4)CC3)cc2)C(F)(F)F)c1 | No IP |

Report LXR alpha IP (nM) for CN(C)C(=O)c1ccc(N2CCC(CCCN(C)C(=O)C(O)(c3ccccc3)C(F)(F)F)CC2)cc1Cl (single isomer, unassigned) tested on GST tagged LXRalpha LBD (ligand binding domain) (Homo sapiens, UniProt Q13133).
No IP

---

# TEST_TARGET: GST tagged LXRbeta LBD (ligand binding domain) (Homo sapiens)
# MEASUREMENT_DESCRIPTION: LanthaScreen TR-FRET Liver X Receptor Coactivator Assay, LXR beta-LBD (co-activator recruitment; IP and % Emax relative to T0901317)
# TEST_SETTINGS: Inflection Point of co-activator recruitment, LXR beta-LBD, TR-FRET
pEC50: −log10 of the molar value.
ATTRIBUTE_MEASURED: pEC50

| SMILES_CODE | TEST_TARGET | pEC50 |
| --- | --- | --- |
| COc1cccc([C@@](O)(C(=O)NC[C@H](C)CC2CCN(c3ccc(C(=O)N(C)C)c(Cl)n3)CC2)C(F)(F)F)c1 | GST tagged LXRbeta LBD (ligand binding domain) (Homo sapiens) | 6.81 |

1. COc1cccc([C@@](O)(C(=O)N(C)C[C@@H]2C[C@@H]2CC2CCN(c3ccc(C(=O)N(C)C)c(Cl)n3)CC2)C(F)(F)F)c1
2. CN(C)C(=O)c1ccc(N2CCC(C[C@@H]3C[C@H]3CN(C)C(=O)[C@](O)(c3ccccc3)C(F)(F)F)CC2)nc1Cl
3. CN(C)C(=O)c1ccc(N2CCC(CCCN(C)C(=O)[C@](O)(c3cc(Cl)cc(Cl)c3)C(F)(F)F)CC2)nc1Cl
4. CN(C)C(=O)c1ccc(N2CCC(CCCNC(=O)[C@@]3(c4ccccc4)CCCO3)CC2)nc1Cl
Rank the items in ascending order with respect to pEC50. Response format: the labels, sorted as the prompt asks.
4, 1, 2, 3

---

# TEST_TARGET: GST tagged LXRalpha LBD (ligand binding domain) (Homo sapiens)
# Construct: purchased Invitrogen pv4655
# MEASUREMENT_DESCRIPTION: LanthaScreen TR-FRET Liver X Receptor Coactivator Assay, LXR alpha-LBD (co-activator recruitment; IP and % Emax relative to T0901317)
# Format: biochemical
# TEST_SETTINGS: efficacy at max dose in relation to reference T0901317, LXR alpha-LBD; read-out: LXR alpha actiivty at max dose (%)
ATTRIBUTE_MEASURED: Emax (%)

| COMPOUND | TEST_TARGET | Emax, % |
| --- | --- | --- |
| COc1cccc([C@@](O)(C(=O)N(C)CCCC2CCN(c3ccc(C(=O)N(C)C)c(OC)n3)CC2)C(F)(F)F)c1 | GST tagged LXRalpha LBD (ligand binding domain) (Homo sapiens) | 0 |
| COc1cccc([C@@](O)(C(=O)N(C)CCCC2CCN(c3ccc(C(=O)N(C)C(C)C)c(Cl)n3)CC2)C(F)(F)F)c1 | GST tagged LXRalpha LBD (ligand binding domain) (Homo sapiens) | 0 |

P. CC(C)Oc1cccc(C(O)(C(=O)N(C)CCCC2CCN(c3ccc(C(=O)N(C)C)c(Cl)n3)CC2)C(F)(F)F)c1 (stereo not drawn)
Q. CN(C)C(=O)c1ccc(N2CCC(CCCN(C)C(=O)[C@@](O)(c3cccc(C4CC4)c3)C(F)(F)F)CC2)nc1Cl
R. CN(C)C(=O)c1ccc(N2CCC([C@H]3C[C@H]3CN(C)C(=O)[C@](O)(c3ccccc3)C(F)(F)F)CC2)nc1Cl
Parameters: sort_field (Emax), sort_dir (desc). Please respond by ranking the labels in the order requested.
R, Q, P
(R: 25%, Q: 16%, P: 0%)

---

# TEST_TARGET: GST tagged LXRbeta LBD (ligand binding domain) (Homo sapiens, UniProt P55055)
# Sequence (P55055 222-460 limits assumed): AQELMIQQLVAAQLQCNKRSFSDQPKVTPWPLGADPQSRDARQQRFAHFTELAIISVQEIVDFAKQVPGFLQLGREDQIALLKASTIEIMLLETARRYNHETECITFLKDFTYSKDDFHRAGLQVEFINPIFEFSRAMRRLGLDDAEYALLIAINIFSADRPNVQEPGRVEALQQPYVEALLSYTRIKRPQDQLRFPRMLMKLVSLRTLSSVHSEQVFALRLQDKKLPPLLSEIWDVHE
# MEASUREMENT_DESCRIPTION: LanthaScreen TR-FRET Liver X Receptor Coactivator Assay, LXR beta-LBD (co-activator recruitment; IP and % Emax relative to T0901317)
# TEST_SETTINGS: Inflection Point of co-activator recruitment, LXR beta-LBD, TR-FRET
# From the text: […]
ATTRIBUTE_MEASURED: EC50 (nM)

| COMPOUND | TEST_TARGET | MEASURED_NUMBER |
| --- | --- | --- |
| CN(C)C(=O)c1ccc(N2CCC(CC3CC(NC(=O)[C@](O)(c4ccccc4)C(F)(F)F)C3)CC2)nc1Cl (some centres unmarked) [Example 11-2] | GST tagged LXRbeta LBD (ligand binding domain) (Homo sapiens, UniProt P55055) | 273 |
| CN(C)C(=O)c1ccc(N2CCC([C@@H]3C[C@H]3CN(C)C(=O)[C@](O)(c3ccccc3)C(F)(F)F)CC2)nc1Cl [Example 15-15] | GST tagged LXRbeta LBD (ligand binding domain) (Homo sapiens, UniProt P55055) | 186 |
| COc1cccc([C@@](O)(C(=O)N(C)CCC2CC3(CCN(c4ccc(C(=O)N(C)C)c(Cl)n4)CC3)C2)C(F)(F)F)c1 [Example 13-1] | GST tagged LXRbeta LBD (ligand binding domain) (Homo sapiens, UniProt P55055) | 34 |
| CN(C)C(=O)c1ccc(N2CCC(CCCN(C)C(=O)[C@](O)(c3cccc(C4CC4)c3)C(F)(F)F)CC2)cc1Cl [Example 4-3] | GST tagged LXRbeta LBD (ligand binding domain) (Homo sapiens, UniProt P55055) | 67 |
| CCc1cccc([C@@](O)(C(=O)N(C)CCCC2CCN(c3ccc(C(=O)N(C)C)c(Cl)n3)CC2)C(F)(F)F)c1 [Example 1-28] | GST tagged LXRbeta LBD (ligand binding domain) (Homo sapiens, UniProt P55055) | 67 |

P. CCc1cccc([C@@](O)(C(=O)NCCCC2CCN(c3ccc(C(=O)N(C)C)c(Cl)n3)CC2)C(F)(F)F)c1 [Example 5-17]
Q. CN(C)C(=O)c1ccc(N2CCC(CCCNC(=O)[C@](O)(c3cccc(OC(F)(F)F)c3)C(F)(F)F)CC2)nc1Cl [Example 5-12]
For P and Q , which recorded EC50 is lower? Write down the label attached to your selection.
P
(P: 401 nM, Q: 1010 nM)

a. COc1cccc([C@@](O)(C(=O)N(C)CCCC2CCN(c3ccc(C(=O)N(C)C)c(C)n3)CC2)C(F)(F)F)c1 [Example 2-20]
b. COc1cccc([C@@](O)(C(=O)Nc2ccc(C3CCN(c4ccc(C(=O)N(C)C)c(Cl)c4)CC3)cc2)C(F)(F)F)c1 [Example 10-3]
# compare EC50 for a vs b ; return the one with the smaller value In your reply, give the label of the chosen option.
a
(a: 271 nM, b: 1330 nM)

---

# TEST_TARGET: GST tagged LXRalpha LBD (ligand binding domain) (Homo sapiens, UniProt Q13133)
# Construct: purchased Invitrogen pv4655
# MEASUREMENT_DESCRIPTION: LanthaScreen TR-FRET Liver X Receptor Coactivator Assay, LXR alpha-LBD (co-activator recruitment; IP and % Emax relative to T0901317)
# Format: biochemical
# TEST_SETTINGS: efficacy at max dose in relation to reference T0901317, LXR alpha-LBD; read-out: LXR alpha actiivty at max dose (%)
ATTRIBUTE_MEASURED: Emax (%)

| MOLECULE | UNIT_NAME | Emax |
| --- | --- | --- |
| CC(C)N(C)C(=O)c1ccc(N2CCC3(CC2)C[C@@H]3CCN(C)C(=O)[C@](O)(c2ccccc2)C(F)(F)F)cc1Cl | % | 32 |
| COc1cccc([C@@](O)(C(=O)N(C)CCCC2CCN(c3ccc(C(=O)N4CC(NC(=O)OC(C)(C)C)C4)c(Cl)n3)CC2)C(F)(F)F)c1 | % | 45 |
| CN(C)C(=O)c1ccc(N2CCC(CCCN(C)C(=O)C3(c4ccccc4)OCCO3)CC2)nc1Cl | % | 0 |
| CC(C)C(O)(C(=O)N(C)CCCC1CCN(c2ccc(C(=O)N(C)C)c(Cl)c2)CC1)C(F)(F)F (stereo not drawn) | % | 23 |

I. COc1cccc([C@@](O)(C(=O)N(C)CC[C@H]2CC23CCN(c2ccc(C(=O)N(C)C)c(Cl)n2)CC3)C(F)(F)F)c1
II. CCOc1cccc([C@@](O)(C(=O)NCCCC2CCN(c3ccc(C(=O)N(C)C)c(Cl)n3)CC2)C(F)(F)F)c1
When I and II are compared, which has the higher number for Emax? Answer = label.
I
(I: 37%, II: 3%)

A. COc1cccc([C@@](O)(C(=O)N(C)C[C@@H]2C[C@@H]2CC2CCN(c3ccc(C(=O)N(C)C)c(Cl)n3)CC2)C(F)(F)F)c1
B. COc1cccc([C@@](O)(C(=O)N(C)CC[C@@H]2CC23CCN(c2ccc(C(=O)NC(C)C)c(Cl)c2)CC3)C(F)(F)F)c1
Which of these two has the smaller recorded Emax: A or B ? Your answer should be the label of the entry you select.
A
